# methodDescription: Lipid peroxidation inhibition (LPI) assay
# Set-up: species or system bovine
# conditionDetails: sodium nitroprusside as pro-oxidant, 37 °C 2 h, MDA at 532 nm
measurementKind: pEC50
Reminder that pEC50 is minus the log10 of a molar concentration.

>>> obsvalue("O=C1O[C@H]([C@@H](O)CO)C(O)=C1O [L-Ascorbic acid, L-ascorbic acid, reference compound]")
3.74

Provide pEC50 value for the following molecule: C[C@@H]1O[C@@H](OC[C@H]2O[C@@H](Oc3c(-c4ccc(O)c(O)c4)oc4cc(O)cc(O)c4c3=O)[C@H](O)[C@@H](O)[C@@H]2O)[C@H](O)[C@H](O)[C@H]1O [Rutin, quercetin-3-rutinoside]
4.59

Let me know recorded pEC50 for O=C(C=Cc1ccc(O)c(O)c1)OC1C(O)CC(O)(C(=O)O)CC1O (centres unmarked) , thanks.
3.68

Identify measured pEC50 associated with O=c1c(O[C@@H]2O[C@H](CO)[C@@H](O)[C@H](O)[C@H]2O)c(-c2ccc(O)c(O)c2)oc2cc(O)cc(O)c12 [Quercetin 3-β-D-glucoside, quercetin 3-β-D-glucoside]
3.17

Fill in pEC50 for record O=C(O)c1cc(O)c(O)c(O)c1 [Gallic acid, reference compound]
3.43
